# Test system: A2780
# RUN_DESCRIPTION: Cytotoxicity against human A2780 cells after 96 hrs by SRB assay
# Format: functional, cell-based
# PARTICULARS: A2780, 96 h
ENDPOINT_NAME: pEC50
Give bare numbers, as −log10 of the molar value.

{"CHEM_SMILES": "CCN(CC)c1ccc2c(-c3ccccc3C(=O)O[C@H]3CC[C@]4(C)[C@H]5CC=C6[C@@H]7[C@@H](C)[C@H](C)CC[C@]7(C(=O)NCc7ccccc7)CC[C@@]6(C)[C@]5(C)CC[C@H]4C3(C)C)c3ccc(=[N+](CC)CC)cc-3oc2c1", "pEC50": 6.47}
{"CHEM_SMILES": "C=C(C)[C@@H]1CC[C@]2(C(=O)OCc3ccccc3)CC[C@]3(C)[C@H](CC[C@@H]4[C@@]5(C)CC[C@H](OC(=O)c6ccccc6-c6c7ccc(=[N+](CC)CC)cc-7oc7cc(N(CC)CC)ccc67)C(C)(C)[C@@H]5CC[C@]43C)[C@H]12", "pEC50": 5.47}
{"CHEM_SMILES": "CCN(CC)c1ccc2c(-c3ccccc3C(=O)O[C@H]3CC[C@]4(C)[C@H]5CC=C6[C@@H]7[C@@H](C)[C@H](C)CC[C@]7(C(=O)OCc7ccccc7)CC[C@@]6(C)[C@]5(C)CC[C@H]4C3(C)C)c3ccc(=[N+](CC)CC)cc-3oc2c1", "pEC50": 5.00}
{"CHEM_SMILES": "C=C(C)[C@@H]1CC[C@]2(C(=O)OC)CC[C@]3(C)[C@H](CC[C@@H]4[C@@]5(C)CC[C@H](OC(=O)c6ccccc6-c6c7ccc(=[N+](CC)CC)cc-7oc7cc(N(CC)CC)ccc67)C(C)(C)[C@@H]5CC[C@]43C)[C@H]12", "pEC50": 6.38}
{"CHEM_SMILES": "CCN(CC)c1ccc2c(-c3ccccc3C(=O)O[C@H]3CC[C@]4(C)[C@H]5C(=O)C=C6[C@@H]7C[C@@](C)(C(=O)OC)CC[C@]7(C)CC[C@@]6(C)[C@]5(C)CC[C@H]4C3(C)C)c3ccc(=[N+](CC)CC)cc-3oc2c1", "pEC50": 7.10}

Give pEC50 for each listed item.
1. CCN(CC)c1ccc2c(-c3ccccc3C(=O)O[C@H]3CC[C@]4(C)[C@H]5CC=C6[C@@H]7CC(C)(C)CC[C@]7(C(=O)OCc7ccccc7)CC[C@@]6(C)[C@]5(C)CC[C@H]4C3(C)C)c3ccc(=[N+](CC)CC)cc-3oc2c1
2. CCN(CC)c1ccc2c(-c3ccccc3C(=O)O[C@H]3CC[C@]4(C)[C@H]5CC=C6[C@@H]7[C@@H](C)[C@H](C)CC[C@]7(C(=O)OC)CC[C@@]6(C)[C@]5(C)CC[C@H]4C3(C)C)c3ccc(=[N+](CC)CC)cc-3oc2c1
3. CCN(CC)c1ccc2c(-c3ccccc3C(=O)O[C@H]3CC[C@]4(C)[C@H]5CC=C6[C@@H]7CC(C)(C)CC[C@]7(C(=O)OC)CC[C@@]6(C)[C@]5(C)CC[C@H]4C3(C)C)c3ccc(=[N+](CC)CC)cc-3oc2c1
4. CCN(CC)c1ccc2c(-c3ccccc3C(=O)O[C@H]3CC[C@]4(C)[C@H]5C(=O)C=C6[C@@H]7C[C@@](C)(C(=O)OCc8ccccc8)CC[C@]7(C)CC[C@@]6(C)[C@]5(C)CC[C@H]4C3(C)C)c3ccc(=[N+](CC)CC)cc-3oc2c1
5. CCN(CC)c1ccc2c(-c3ccccc3C(=O)O[C@H]3CC[C@]4(C)[C@H]5CC=C6[C@@H]7CC(C)(C)CC[C@]7(C(=O)NCc7ccccc7)CC[C@@]6(C)[C@]5(C)CC[C@H]4C3(C)C)c3ccc(=[N+](CC)CC)cc-3oc2c1

Key:
1. 5.47
2. 5.76
3. 5.94
4. 6.05
5. 6.49

Would you be so kind as to report pEC50 for each listed record?
1. C=C(C)[C@@H]1CC[C@]2(C(=O)NCc3ccccc3)CC[C@]3(C)[C@H](CC[C@@H]4[C@@]5(C)CC[C@H](OC(=O)c6ccccc6-c6c7ccc(=[N+](CC)CC)cc-7oc7cc(N(CC)CC)ccc67)C(C)(C)[C@@H]5CC[C@]43C)[C@H]12
2. CCN(CC)c1ccc2c(-c3ccccc3C(=O)O[C@H]3CC[C@]4(C)[C@H]5C(=O)C=C6[C@@H]7C[C@@](C)(C(=O)NCc8ccccc8)CC[C@]7(C)CC[C@@]6(C)[C@]5(C)CC[C@H]4C3(C)C)c3ccc(=[N+](CC)CC)cc-3oc2c1.[Cl-]

Key:
[6.51, 7.70]
